Where these numbers come from: ChEMBL document CHEMBL1131794

- System: Escherichia coli
- assay.name: In vitro synergistic activity against Escherichia coli C600N + (Sme-1)
- Assay type: functional
endpoint: MIC

INSERT INTO measurements (compound, observed) VALUES
  ('CCN1CCN(C(=O)NC(C(=O)N[C@@H]2C(=O)N3[C@@H]2SC(C)(C)[C@@H]3C(=O)[O-])c2ccccc2)C(=O)C1=O.C[C@]1(COC(=O)Cc2ccc(O)c(O)c2)[C@H](C(=O)[O-])N2C(=O)/C(=C/c3ccccn3)C2S1(=O)=O.[Na+].[Na+] (stereo partly drawn)', '8 µg/mL'),
  ('C[C@@H](O)[C@H]1C(=O)N2C(C(=O)O)=C(SCCNC=N)C[C@H]12 [IMIPENEM ANHYDROUS]', '64 µg/mL'),
  ('CCN1CCN(C(=O)N[C@@H](C(=O)N[C@@H]2C(=O)N3[C@@H]2SC(C)(C)[C@@H]3C(=O)O)c2ccccc2)C(=O)C1=O', '> 64 µg/mL');

====

- Test system: Escherichia coli
- assay.name: In vitro synergistic activity against Escherichia coli C600N + (MIR-1)
- Format: functional
Each record here notes measured MIC.
endpoint: MIC (µg/mL)

INSERT INTO measurements (compound, inequality_sign, observed) VALUES
  ('CCN1CCN(C(=O)N[C@@H](C(=O)N[C@@H]2C(=O)N3[C@@H]2SC(C)(C)[C@@H]3C(=O)O)c2ccccc2)C(=O)C1=O', '=', 64),
  ('CCN1CCN(C(=O)NC(C(=O)N[C@@H]2C(=O)N3[C@@H]2SC(C)(C)[C@@H]3C(=O)[O-])c2ccccc2)C(=O)C1=O.C[C@]1(Cn2ccnn2)C(C(=O)[O-])N2C(=O)C[C@H]2S1(=O)=O.[Na+].[Na+] (stereo partly specified)', '=', 8),
  ('CCN1CCN(C(=O)NC(C(=O)N[C@@H]2C(=O)N3[C@@H]2SC(C)(C)[C@@H]3C(=O)[O-])c2ccccc2)C(=O)C1=O.C[C@]1(COC(=O)Cc2ccc(O)c(O)c2)[C@H](C(=O)[O-])N2C(=O)/C(=C/c3ccccn3)C2S1(=O)=O.[Na+].[Na+] (stereo partly specified)', '=', 8),
  ('C[C@]1(COC(=O)Cc2ccc(O)c(O)c2)[C@H](C(=O)[O-])N2C(=O)/C(=C/c3ccccn3)C2S1(=O)=O.[Na+] (stereo partly specified)', '>', 64),
  ('C[C@@H](O)[C@H]1C(=O)N2C(C(=O)O)=C(SCCNC=N)C[C@H]12 [IMIPENEM ANHYDROUS]', '=', 0.5),
  ('CC(C)(O/N=C(\C(=O)N[C@@H]1C(=O)N2C(C(=O)[O-])=C(C[n+]3ccccc3)CS[C@H]12)c1csc(N)n1)C(=O)O', '=', 64);

====

- Tested on: Enterobacter cloacae
- assay.name: In vitro synergistic activity against Enterobacter cloacae SC12629 (AmpC inducible)
- Format: functional
endpoint: MIC

INSERT INTO assay_data (compound, observed) VALUES
  ('CC(C)(O/N=C(\C(=O)N[C@@H]1C(=O)N2C(C(=O)[O-])=C(C[n+]3ccccc3)CS[C@H]12)c1csc(N)n1)C(=O)O', '> 64 µg/mL'),
  ('C[C@]1(COC(=O)Cc2ccc(O)c(O)c2)[C@H](C(=O)[O-])N2C(=O)/C(=C/c3ccccn3)C2S1(=O)=O.[Na+] (stereo partly specified)', '> 64 µg/mL'),
  ('CCN1CCN(C(=O)NC(C(=O)N[C@@H]2C(=O)N3[C@@H]2SC(C)(C)[C@@H]3C(=O)[O-])c2ccccc2)C(=O)C1=O.C[C@]1(COC(=O)Cc2ccc(O)c(O)c2)[C@H](C(=O)[O-])N2C(=O)/C(=C/c3ccccn3)C2S1(=O)=O.[Na+].[Na+] (stereo partly specified)', '64 µg/mL'),
  ('CCN1CCN(C(=O)N[C@@H](C(=O)N[C@@H]2C(=O)N3[C@@H]2SC(C)(C)[C@@H]3C(=O)O)c2ccccc2)C(=O)C1=O', '> 64 µg/mL'),
  ('CCN1CCN(C(=O)NC(C(=O)N[C@@H]2C(=O)N3[C@@H]2SC(C)(C)[C@@H]3C(=O)[O-])c2ccccc2)C(=O)C1=O.C[C@]1(Cn2ccnn2)C(C(=O)[O-])N2C(=O)C[C@H]2S1(=O)=O.[Na+].[Na+] (stereo partly specified)', '> 64 µg/mL'),
  ('C[C@@H](O)[C@H]1C(=O)N2C(C(=O)O)=C(SCCNC=N)C[C@H]12 [IMIPENEM ANHYDROUS]', '1 µg/mL');

====

Each record here notes measured MIC.
- Tested on: Escherichia coli
- assay.name: In vitro synergistic activity against Escherichia coli GC6267 clinical isolate
- Type: functional
endpoint: MIC (µg/mL)

INSERT INTO measurements (compound, target_under_test, unit, inequality_sign, observed) VALUES
  ('CCN1CCN(C(=O)N[C@@H](C(=O)N[C@@H]2C(=O)N3[C@@H]2SC(C)(C)[C@@H]3C(=O)O)c2ccccc2)C(=O)C1=O [PIPERACILLIN]', 'Escherichia coli', 'µg/mL', '>', 64),
  ('CCN1CCN(C(=O)NC(C(=O)N[C@@H]2C(=O)N3[C@@H]2SC(C)(C)[C@@H]3C(=O)[O-])c2ccccc2)C(=O)C1=O.C[C@]1(Cn2ccnn2)C(C(=O)[O-])N2C(=O)C[C@H]2S1(=O)=O.[Na+].[Na+] (stereo partly specified)', 'Escherichia coli', 'µg/mL', '=', 16),
  ('C[C@@H](O)[C@H]1C(=O)N2C(C(=O)O)=C(SCCNC=N)C[C@H]12 [IMIPENEM ANHYDROUS]', 'Escherichia coli', 'µg/mL', '=', 0.12),
  ('C[C@]1(COC(=O)Cc2ccc(O)c(O)c2)[C@H](C(=O)[O-])N2C(=O)/C(=C/c3ccccn3)C2S1(=O)=O.[Na+] (stereo partly specified)', 'Escherichia coli', 'µg/mL', '>', 64),
  ('CC(C)(O/N=C(\C(=O)N[C@@H]1C(=O)N2C(C(=O)[O-])=C(C[n+]3ccccc3)CS[C@H]12)c1csc(N)n1)C(=O)O [CEFTAZIDIME]', 'Escherichia coli', 'µg/mL', '=', 0.25),
  ('CCN1CCN(C(=O)NC(C(=O)N[C@@H]2C(=O)N3[C@@H]2SC(C)(C)[C@@H]3C(=O)[O-])c2ccccc2)C(=O)C1=O.C[C@]1(COC(=O)Cc2ccc(O)c(O)c2)[C@H](C(=O)[O-])N2C(=O)/C(=C/c3ccccn3)C2S1(=O)=O.[Na+].[Na+] (stereo partly specified)', 'Escherichia coli', 'µg/mL', '=', 16);

====

- target.under.test: Beta-lactamase TEM (Escherichia coli)
- Sequence (P62593 whole entry): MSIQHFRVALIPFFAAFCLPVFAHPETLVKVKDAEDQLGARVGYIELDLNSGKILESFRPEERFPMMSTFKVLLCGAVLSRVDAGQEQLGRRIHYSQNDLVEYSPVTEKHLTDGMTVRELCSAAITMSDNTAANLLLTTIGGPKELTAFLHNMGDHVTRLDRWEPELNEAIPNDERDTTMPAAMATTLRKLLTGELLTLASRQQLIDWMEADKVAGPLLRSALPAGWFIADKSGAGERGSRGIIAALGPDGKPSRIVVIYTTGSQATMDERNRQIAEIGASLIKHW
- assay.name: Inhibitory activity against serine Beta-lactamase TEM derived from […]
IC50 less than 200 nM is Criterion met; IC50 greater than or equal to 200 nM is Criterion not met.

INSERT INTO results (molecule, discrete_label) VALUES
  ('C[C@]1(COC(=O)Cc2ccccc2)[C@H](C(=O)O)N2C(=O)/C(=C/c3ccccn3)C2S1(=O)=O (stereo partly drawn)', 'Criterion met'),
  ('C[C@]1(CCl)[C@H](C(=O)O)N2C(=O)/C(=C/C(=O)O)C2S1(=O)=O (stereo partly drawn)', 'Criterion not met'),
  ('CC1(C)[C@H](C(=O)O)N2C(=O)/C(=C/C(=O)O)C2S1(=O)=O (stereo partly drawn)', 'Criterion not met'),
  ('Cn1nnnc1SCC(=O)OC[C@@]1(C)[C@H](C(=O)O)N2C(=O)/C(=C/C(=O)O)C2S1(=O)=O (stereo partly drawn)', 'Criterion not met'),
  ('COC(=O)/C=C1/C(=O)N2[C@@H](C(=O)O)[C@](C)(COC(C)=O)S(=O)(=O)[C@H]12', 'Criterion not met'),
  ('C[C@]1(COC(=O)Cc2ccccc2)[C@H](C(=O)O)N2C(=O)/C(=C/C(=O)O)C2S1(=O)=O (stereo partly drawn)', 'Criterion met'),
  ('CC(=O)OC[C@@]1(C)[C@H](C(=O)O)N2C(=O)/C(=C/C(N)=O)C2S1(=O)=O (stereo partly drawn)', 'Criterion not met'),
  ('C[C@]1(COC(=O)Cc2ccc(O)c(O)c2)[C@H](C(=O)[O-])N2C(=O)/C(=C/c3ccccn3)C2S1(=O)=O.[Na+] (stereo partly drawn)', 'Criterion met'),
  ('C[C@]1(/C=C/C#N)[C@H](C(=O)O)N2C(=O)/C(=C/C(=O)O)C2S1(=O)=O (stereo partly drawn)', 'Criterion not met'),
  ('CC(=O)OC[C@@]1(C)[C@H](C(=O)O)N2C(=O)/C(=C/C(=O)O)C2S1(=O)=O (stereo partly drawn)', 'Criterion met'),
  ('COC(=O)/C=C1/C(=O)N2C1S(=O)(=O)[C@@](C)(COC(=O)CSc1nnnn1C)[C@@H]2C(=O)O (stereo partly drawn)', 'Criterion not met'),
  ('CC(=O)OC[C@@]1(C)[C@H](C(=O)O)N2C(=O)/C(=C/c3ccccn3)C2S1(=O)=O (stereo partly drawn)', 'Criterion met');
